# system: T1, human PD-1 expressed on cells (human, UniProt Q15116 25-288)
# T1 construct: whole, on cells; also called CHO-K1/huPD-1; CHO-K1-hPD-1 cells
# T1 sequence (Q15116 25-288): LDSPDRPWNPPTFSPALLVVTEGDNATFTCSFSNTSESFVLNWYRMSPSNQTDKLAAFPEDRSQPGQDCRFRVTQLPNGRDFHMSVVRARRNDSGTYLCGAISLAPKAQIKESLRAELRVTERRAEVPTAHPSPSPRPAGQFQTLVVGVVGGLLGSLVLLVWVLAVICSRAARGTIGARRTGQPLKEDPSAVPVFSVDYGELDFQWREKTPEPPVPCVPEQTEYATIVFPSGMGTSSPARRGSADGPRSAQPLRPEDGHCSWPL
# assay: cell RBA FACS, CHO-K1-huPD1; competitor biotin-PD-L1/Fc
property.name: pIC50
Give bare numbers, as −log10 of the molar value.

Here are 8 binders together with their reported answers.
- binder: "HumAb709-10 (antibody, human IgG1, kappa, L234A L235A, V domains shown, humanized mAb709) VH: EVQLVESGGGLVQPGGSLRLSCAASGFTFSFYTMSWVRQAPGKGLEWVATISGGGRDTYYPDSVKGRFTISRDNAKNSLYLQMNSLRAEDTAVYYCARQGGNYLFAYWGQGTLVTVSS VL: DIVMTQSPSSLSASVGDRVTITCKASQDVNTVVAWYQQKPGKAPKVLISWASTRHTGVPSRFTGSGSGTDYTLTISSLQPEDFATYYCQQHYTTPYTFGGGTKVEIKR"
  pIC50: 9.54
- binder: "mAb709c (antibody, V domains shown, also called HumAb709c) VH: EVKLVESGGGLVKPGGSLKLSCAASGFTFSFYTMSWVRQTPEKRLEWVATISGGGRDTYYPDSVKGRFTISRDNAKNTLYLHMSSLRSEDTALYYCAGQGGNYLFAYWGQGTLVTVSA VL: DIVMTQSHKFMSTSVGDSVTITCKASQDVNTVVAWYQQKPGQSLKVLISWASTRHTGVPARFTGSGSGTDYTLTISSVQAEDLALYYCQQHYTTPYTFGGGTQLEIK"
  pIC50: 9.21
- binder: "HumAb709-1 (antibody, human IgG1, kappa, L234A L235A, V domains shown, humanized mAb709) VH: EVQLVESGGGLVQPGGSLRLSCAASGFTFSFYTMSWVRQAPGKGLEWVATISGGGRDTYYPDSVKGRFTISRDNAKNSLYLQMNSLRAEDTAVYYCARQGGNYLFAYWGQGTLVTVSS VL: DIQMTQSPSSLSASVGDRVTITCKASQDVNTVVAWYQQKPGKAPKLLIYWASTRHTGVPSRFSGSGSGTDYTLTISSLQPEDFATYYCQQHYTTPYTFGGGTKVEIKR"
  pIC50: 8.99
- binder: "HumAb709-14 (antibody, human IgG1, kappa, L234A L235A, V domains shown, humanized mAb709) VH: EVQLVESGGGLVQPGGSLRLSCAASGFTFSFYTMSWVRQAPGKGLEWVATISGGGRDTYYPDSVKGRFTISRDNAKNSLYLQMNSLRAEDTAVYYCAGQGGNYLFAYWGQGTLVTVSS VL: DIVMTQSPSSLSASVGDRVTITCKASQDVNTVVAWYQQKPGKSLKVLISWASTRHTGVPSRFTGSGSGTDYTLTISSLQPEDFATYYCQQHYTTPYTFGGGTKVEIKR"
  pIC50: 9.29
- binder: "HumAb709-13 (antibody, human IgG1, kappa, L234A L235A, V domains shown, humanized mAb709) VH: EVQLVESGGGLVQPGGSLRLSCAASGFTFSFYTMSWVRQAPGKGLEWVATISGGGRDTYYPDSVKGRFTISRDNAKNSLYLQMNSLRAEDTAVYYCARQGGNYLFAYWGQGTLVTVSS VL: DIVMTQSPSSLSASVGDRVTITCKASQDVNTVVAWYQQKPGKSLKVLISWASTRHTGVPSRFTGSGSGTDYTLTISSLQPEDFATYYCQQHYTTPYTFGGGTKVEIKR"
  pIC50: 9.30
- binder: "HumAb709-15 (antibody, human IgG1, kappa, L234A L235A, V domains shown, humanized mAb709) VH: EVQLVESGGGLVQPGGSLRLSCAASGFTFSFYTMSWVRQAPGKRLEWVATISGGGRDTYYPDSVKGRFTISRDNAKNSLYLQMNSLRAEDTAVYYCAGQGGNYLFAYWGQGTLVTVSS VL: DIVMTQSPSSLSASVGDRVTITCKASQDVNTVVAWYQQKPGKSLKVLISWASTRHTGVPSRFTGSGSGTDYTLTISSLQPEDFATYYCQQHYTTPYTFGGGTKVEIKR"
  pIC50: 9.05
- binder: "HumAb709-8 (antibody, human IgG1, kappa, L234A L235A, V domains shown, humanized mAb709; also called HurnAb709-8) VH: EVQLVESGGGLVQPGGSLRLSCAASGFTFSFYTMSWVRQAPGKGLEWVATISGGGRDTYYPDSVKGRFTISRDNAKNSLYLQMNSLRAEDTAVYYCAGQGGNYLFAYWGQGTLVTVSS VL: DIVMTQSPSSLSASVGDRVTITCKASQDVNTVVAWYQQKPGKAPKVLISWASTRHTGVPSRFSGSGSGTDYTLTISSLQPEDFATYYCQQHYTTPYTFGGGTKVEIKR"
  pIC50: 9.36
- binder: "HumAb709-12 (antibody, human IgG1, kappa, L234A L235A, V domains shown, humanized mAb709; also called HuntAb709-12) VH: EVQLVESGGGLVQPGGSLRLSCAASGFTFSFYTMSWVRQAPGKRLEWVATISGGGRDTYYPDSVKGRFTISRDNAKNSLYLQMNSLRAEDTAVYYCAGQGGNYLFAYWGQGTLVTVSS VL: DIVMTQSPSSLSASVGDRVTITCKASQDVNTVVAWYQQKPGKAPKVLISWASTRHTGVPSRFTGSGSGTDYTLTISSLQPEDFATYYCQQHYTTPYTFGGGTKVEIKR"
  pIC50: 9.35

Provide pIC50 values for the following items, in order.
1. HumAb709-11 (antibody, human IgG1, kappa, L234A L235A, V domains shown, humanized mAb709) VH: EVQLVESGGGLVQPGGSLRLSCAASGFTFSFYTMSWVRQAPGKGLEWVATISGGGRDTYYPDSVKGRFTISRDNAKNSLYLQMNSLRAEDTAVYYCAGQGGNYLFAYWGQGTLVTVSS VL: DIVMTQSPSSLSASVGDRVTITCKASQDVNTVVAWYQQKPGKAPKVLISWASTRHTGVPSRFTGSGSGTDYTLTISSLQPEDFATYYCQQHYTTPYTFGGGTKVEIKR
2. HumAb709-6 (antibody, human IgG1, kappa, L234A L235A, V domains shown, humanized mAb709) VH: EVQLVESGGGLVQPGGSLRLSCAASGFTFSFYTMSWVRQAPGKRLEWVATISGGGRDTYYPDSVKGRFTISRDNAKNSLYLQMNSLRAEDTAVYYCAGQGGNYLFAYWGQGTLVTVSS VL: DIQMTQSPSSLSASVGDRVTITCKASQDVNTVVAWYQQKPGKAPKLLISWASTRHTGVPSRFSGSGSGTDYTLTISSLQPEDFATYYCQQHYTTPYTFGGGTKVEIKR

1: 9.26; 2: 8.91
